Values from patent US20230081426A1

Target: G12D-mutant human KRAS (amino acid residues 1-188) (Homo sapiens, UniProt P01116, G12D)
Construct: G12D or G12C-mutant human KRAS (amino acid residues 1-188) with FLAG tag; made in house; host or cells: E. coli
Sequence (P01116 1-188 isoform P01116-2 G12D): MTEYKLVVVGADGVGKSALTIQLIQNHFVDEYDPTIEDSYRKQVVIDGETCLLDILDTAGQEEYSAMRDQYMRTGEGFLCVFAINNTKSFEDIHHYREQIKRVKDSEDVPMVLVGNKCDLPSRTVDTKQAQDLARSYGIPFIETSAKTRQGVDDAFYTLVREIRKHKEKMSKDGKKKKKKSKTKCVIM
Assay: KRAS Binding Disruption Assay (AlphaScreen; biotinylated KRpep-2d analogue or RAF1-RBD), G12D
Details: KRAS G12D; geometric mean; read-out: KRAS GMean IC50 (uM) MUTATION: G12D
Please respond with reported IC50 for every item in the list.

Query: Give the measured IC50 of O=C(NC1CCNC1)N1[C@@H]2CC[C@H]1CN(c1nc(OCC34CCCN3CCC4)nc3cc(-c4cc(O)cc5ccccc45)ccc13)C2 (stereo partly shown) .
Reply: 0.0001 to 10 µM

Query: Item CC(=O)Nc1cncc(-c2ccc3c(N4C[C@H]5CC[C@@H](C4)N5)nc(OC[C@@H]4CCCN4C)nc3c2)c1 has what recorded IC50?
Reply: 100 to 1000 µM

Query: For Oc1cc(-c2ccc3c(N4C[C@H]5CC[C@@H](C4)N5)nc(OCCn4cccn4)nc3c2F)c2ccccc2c1 , what is its reported IC50?
Reply: 0.0001 to 10 µM

Query: Could you tell me which IC50 is on file for CN1CCC[C@H]1COc1nc(N2[C@@H]3CC[C@H]2CN(C(=O)CC#N)C3)c2ccc(-c3cc(O)cc4ccccc34)cc2n1 ?
Reply: 10 to 100 µM

Query: Any idea what IC50 was measured for CN1CCC[C@H]1COc1nc(N2C[C@H]3CC[C@@H](C2)N3)c2cc(F)c(-c3c[nH]c4cc(Cl)ccc34)c(F)c2n1 ?
Reply: 0.0001 to 10 µM

Query: Quick check: IC50 of CN1CCC[C@H]1COc1nc(N2C[C@H]3CC[C@@H](C2)N3C(=O)CC2SC(=O)NC2=O)c2cc(F)c(-c3cc(O)cc4ccccc34)c(F)c2n1 (stereo partly shown) ?
Reply: 0.0001 to 10 µM

Query: Any idea what its IC50 is? The compound is N#CCC(=O)N1[C@@H]2CC[C@H]1CN(c1nc(OCC34CCCN3CCC4)nc3c(F)c(-c4cc(O)cc5ccccc45)c(Cl)cc13)C2
Reply: 0.0001 to 10 µM

* * *

Biological target: G12C-mutant human KRAS (amino acid residues 1-188) (Homo sapiens, UniProt P01116, G12C)
Construct: G12D or G12C-mutant human KRAS (amino acid residues 1-188) with FLAG tag; made in house; host or cells: E. coli
Sequence (P01116 1-188 isoform P01116-2 G12C): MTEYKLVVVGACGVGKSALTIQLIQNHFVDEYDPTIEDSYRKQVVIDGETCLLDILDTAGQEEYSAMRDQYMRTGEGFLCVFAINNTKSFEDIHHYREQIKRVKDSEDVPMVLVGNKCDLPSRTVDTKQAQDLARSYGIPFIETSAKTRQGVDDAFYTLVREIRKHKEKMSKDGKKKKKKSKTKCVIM
Experiment: KRAS Binding Disruption Assay (AlphaScreen; biotinylated KRpep-2d analogue or RAF1-RBD), G12C
Details: geometric mean, read-out: KRAS GMean IC50 (uM) MUTATION: G12C
measurement.kind: IC50

Query: Looking for the measured IC50 of Oc1cc(-c2ccc3c(N4C[C@H]5CC[C@@H](C4)N5)nc(OCC4CCCCO4)nc3c2F)c2ccccc2c1 (stereo partly shown) [P-0775] , can you help?
Reply: 10 to 100 µM

Query: Suppose we examine the compound Oc1cc(-c2ccc3c(N4C[C@H]5CC[C@@H](C4)N5)nc(OCC4CCCOC4)nc3c2F)c2ccccc2c1 (stereo partly shown) [P-0776] ; what IC50 value has been reported?
Reply: 10 to 100 µM

Query: Entry OCCOc1nc(N2C[C@H]3CC[C@@H](C2)N3)c2ccc(-c3cc(O)cc4ccccc34)c(F)c2n1 [P-0784] has what IC50?
Reply: 10 to 100 µM

Query: Fill blank: measured IC50 of the compound CC(CCBr)Oc1nc(N2C[C@H]3CC[C@@H](C2)N3)c2ccc(-c3cc(O)cc4ccccc34)c(F)c2n1 (stereo partly shown) [P-0755] is ____.
Reply: 10 to 100 µM

Query: Requested read-out: IC50. Entry: CN1CCC[C@H]1COc1nc(N2C[C@H]3CC[C@@H](C2)N3C(=O)CC2SC(=O)NC2=O)c2ccc(-c3cc(O)cc4ccccc34)c(F)c2n1 (stereo partly shown) [P-0279]
Reply: 0.0001 to 10 µM

Query: Recorded IC50 of O=C(NC1CCOC1)N1[C@@H]2CC[C@H]1CN(c1nc(OCC34CCCN3CCC4)nc3cc(-c4cc(O)cc5ccccc45)ccc13)C2 (stereo partly shown) [P-0129] , please.
Reply: 0.0001 to 10 µM

Query: Quick one: IC50 of CNCCNc1nc(N2C[C@H]3CC[C@@H](C2)N3)c2ccc(-c3cc(O)cc4ccccc34)cc2n1 [P-0061] ?
Reply: 100 to 1000 µM

* * *

Target: G12C-mutant human KRAS (amino acid residues 1-188) (Homo sapiens, UniProt P01116, G12C)
Construct: G12D or G12C-mutant human KRAS (amino acid residues 1-188) with FLAG tag; made in house; host or cells: E. coli
Assay: KRAS Binding Disruption Assay (AlphaScreen; biotinylated KRpep-2d analogue or RAF1-RBD), G12C
Details: geometric mean, read-out: KRAS GMean IC50 (uM) MUTATION: G12C
measurement.kind: IC50

Query: Request body: readout IC50, system G12C-mutant human KRAS (amino acid residues 1-188) (Homo sapiens, UniProt P01116, G12C), query CN1CCC[C@H]1COc1nc(N2C[C@H]3CC[C@@H](C2)O3)c2ccc(-c3cc(O)cc4ccccc34)c(F)c2n1 . Return the value.
Reply: 0.0001 to 10 µM

Query: Observed IC50 on G12C-mutant human KRAS (amino acid residues 1-188) (Homo sapiens, UniProt P01116, G12C) for COC(C)(C)COc1nc(N2C[C@H]3CC[C@@H](C2)N3)c2ccc(-c3cc(O)cc4ccccc34)c(F)c2n1 , please.
Reply: 10 to 100 µM

Query: Field: IC50 (G12C-mutant human KRAS (amino acid residues 1-188) (Homo sapiens, UniProt P01116, G12C)). Entry: Fc1cc2c(N3C[C@H]4CC[C@@H](C3)N4)nc(OCC34CCCN3CCC4)nc2c(F)c1-c1c[nH]c2c(F)ccc(F)c12
Reply: 10 to 100 µM

Query: Query for G12C-mutant human KRAS (amino acid residues 1-188) (Homo sapiens, UniProt P01116, G12C): what IC50 does the record show for Oc1cc(-c2ccc3c(N4C[C@H]5CC[C@@H](C4)N5)nc(OCC4CCCCC4)nc3c2F)c2ccccc2c1 ?
Reply: 10 to 100 µM

Query: Look up IC50 with G12C-mutant human KRAS (amino acid residues 1-188) (Homo sapiens, UniProt P01116, G12C) for this compound: O=C(c1ccccn1)N1[C@@H]2CC[C@H]1CN(c1nc(OCC34CCCN3CCC4)nc3cc(-c4cc(O)cc5ccccc45)ccc13)C2
Reply: 0.0001 to 10 µM

Query: Give the reported IC50 for COc1cccc2[nH]cc(-c3c(F)cc4c(N5C[C@H]6CC[C@@H](C5)N6)nc(OC[C@@H]5CCCN5C)nc4c3F)c12 (system: G12C-mutant human KRAS (amino acid residues 1-188) (Homo sapiens, UniProt P01116, G12C)).
Reply: 10 to 100 µM

Query: Record NC1CN(c2nc(N3C[C@H]4CC[C@@H](C3)N4)c3ccc(-c4cc(O)cc5ccccc45)c(F)c3n2)C1 : what is its IC50 with G12C-mutant human KRAS (amino acid residues 1-188) (Homo sapiens, UniProt P01116, G12C)?
Reply: 10 to 100 µM

Query: Value wanted: IC50 (G12C-mutant human KRAS (amino acid residues 1-188) (Homo sapiens, UniProt P01116, G12C)) of entry CC1(COc2nc(N3C[C@H]4CC[C@@H](C3)N4)c3ccc(-c4cc(O)cc5ccccc45)c(F)c3n2)COC1
Reply: 100 to 1000 µM

Query: Item O=C(N[C@H]1CC[C@@H](O)C1)N1[C@@H]2CC[C@H]1CN(c1nc(OCC34CCCN3CCC4)nc3cc(-c4cc(O)cc5ccccc45)ccc13)C2 with G12C-mutant human KRAS (amino acid residues 1-188) (Homo sapiens, UniProt P01116, G12C) - IC50?
Reply: 0.0001 to 10 µM

Query: Give recorded IC50 with G12C-mutant human KRAS (amino acid residues 1-188) (Homo sapiens, UniProt P01116, G12C) for the following compound: Fc1cc2c(N3C[C@H]4CC[C@@H](C3)N4)nc(OCC34CCCN3CCC4)nc2c(F)c1-c1c[nH]c2ccc(F)c(F)c12
Reply: 0.0001 to 10 µM

Query: What value of IC50 on G12C-mutant human KRAS (amino acid residues 1-188) (Homo sapiens, UniProt P01116, G12C) does Oc1cccc(F)c1-c1ccc2c(N3C[C@H]4CC[C@@H](C3)N4)nc(OCC34CCCN3CCC4)nc2c1F have?
Reply: 10 to 100 µM

Query: Lab note: need IC50 for CN1C(=O)SC(CC(=O)N2[C@@H]3CC[C@H]2CN(c2nc(OCC45CCCN4CCC5)nc4c(F)c(-c5cc(O)cc6ccccc56)ccc24)C3)C1=O (some centres unmarked) on G12C-mutant human KRAS (amino acid residues 1-188) (Homo sapiens, UniProt P01116, G12C), anyone have it?
Reply: 0.0001 to 10 µM

Query: Short answer please: IC50, G12C-mutant human KRAS (amino acid residues 1-188) (Homo sapiens, UniProt P01116, G12C), entry Cc1cccc2[nH]cc(-c3c(F)cc4c(N5C[C@H]6CC[C@@H](C5)N6)nc(OCC56CCCN5CCC6)nc4c3F)c12
Reply: 0.0001 to 10 µM

Query: Param readout = IC50; param system = G12C-mutant human KRAS (amino acid residues 1-188) (Homo sapiens, UniProt P01116, G12C); param query = Oc1cc(-c2ccc3c(N4C[C@H]5CC[C@@H](C4)N5)nc(OCCn4cccc4)nc3c2F)c2ccccc2c1 ; response: value
Reply: 10 to 100 µM
